study-target: T1, human FcRH5 protein fragment (soluble) (human, UniProt Q96RD9 16-851)
T1 construct: whole entry named; also called soluble human FcRH5; Human FcRH5 (BIACORE analyte)
T1 sequence: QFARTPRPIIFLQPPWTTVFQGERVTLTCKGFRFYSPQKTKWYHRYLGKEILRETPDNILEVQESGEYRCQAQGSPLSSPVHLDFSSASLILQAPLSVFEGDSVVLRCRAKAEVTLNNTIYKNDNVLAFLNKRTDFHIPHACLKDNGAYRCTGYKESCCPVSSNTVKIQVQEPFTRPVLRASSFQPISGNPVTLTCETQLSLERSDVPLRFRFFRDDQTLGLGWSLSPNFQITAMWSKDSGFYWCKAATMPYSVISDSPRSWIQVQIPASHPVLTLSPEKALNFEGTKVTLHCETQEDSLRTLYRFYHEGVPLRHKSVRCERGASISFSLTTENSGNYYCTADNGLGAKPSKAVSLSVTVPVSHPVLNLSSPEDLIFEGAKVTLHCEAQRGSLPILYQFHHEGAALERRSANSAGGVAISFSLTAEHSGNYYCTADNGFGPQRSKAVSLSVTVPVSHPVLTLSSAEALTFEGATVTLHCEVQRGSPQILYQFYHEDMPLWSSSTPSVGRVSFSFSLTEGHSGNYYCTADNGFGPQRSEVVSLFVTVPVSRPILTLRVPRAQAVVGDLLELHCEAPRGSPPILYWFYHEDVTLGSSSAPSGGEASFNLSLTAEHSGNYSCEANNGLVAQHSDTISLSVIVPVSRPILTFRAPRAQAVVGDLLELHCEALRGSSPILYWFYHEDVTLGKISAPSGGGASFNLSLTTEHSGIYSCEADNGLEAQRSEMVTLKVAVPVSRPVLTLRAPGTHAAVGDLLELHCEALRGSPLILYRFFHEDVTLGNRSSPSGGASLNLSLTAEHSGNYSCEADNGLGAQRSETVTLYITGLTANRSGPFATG
test-method-notes: BIACORE, human IgG1, soluble human FcRH5

- binder: "1G7.v1L (antibody, human IgG1, V domains shown, human IgG1 with the light chain of hu1G7.v1; also called L (hu1G7.v1 heavy chain S100P)) VH: EVQLVESGPGLVKPSETLSLTCTVSGFSLTRFGVHWVRQPPGKGLEWLGVIWRGGSTDYNAAFMSRLTISKDNSKNQVSLKLSSVTAADTAVYYCSNHYYGSPDYALDNWGQGTLVTVSS VL: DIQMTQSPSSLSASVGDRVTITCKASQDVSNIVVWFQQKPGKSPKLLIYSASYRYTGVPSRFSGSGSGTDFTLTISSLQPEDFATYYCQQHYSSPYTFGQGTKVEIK"
  uom: "nM"
  Kd: 4.8
- binder: "1G7.v1I (antibody, human IgG1, V domains shown, human IgG1 with the light chain of hu1G7.v1; also called I (hu1G7.v1 heavy chain S65P)) VH: EVQLVESGPGLVKPSETLSLTCTVSGFSLTRFGVHWVRQPPGKGLEWLGVIWRGGSTDYNAAFMPRLTISKDNSKNQVSLKLSSVTAADTAVYYCSNHYYGSSDYALDNWGQGTLVTVSS VL: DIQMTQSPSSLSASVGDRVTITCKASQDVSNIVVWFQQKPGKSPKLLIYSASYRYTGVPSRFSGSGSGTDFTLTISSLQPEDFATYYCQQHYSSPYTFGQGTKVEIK"
  uom: "nM"
  Kd: 16.2
